- Target Under Test: epidermal growth factor receptor tyrosine kinase (Homo sapiens, UniProt P00533)
- Construct: A native 170,000 epidermal growth factor receptor-kinase complex from shed plasma membrane vesicles; endogenous in cells
- Sequence (P00533 25-1210): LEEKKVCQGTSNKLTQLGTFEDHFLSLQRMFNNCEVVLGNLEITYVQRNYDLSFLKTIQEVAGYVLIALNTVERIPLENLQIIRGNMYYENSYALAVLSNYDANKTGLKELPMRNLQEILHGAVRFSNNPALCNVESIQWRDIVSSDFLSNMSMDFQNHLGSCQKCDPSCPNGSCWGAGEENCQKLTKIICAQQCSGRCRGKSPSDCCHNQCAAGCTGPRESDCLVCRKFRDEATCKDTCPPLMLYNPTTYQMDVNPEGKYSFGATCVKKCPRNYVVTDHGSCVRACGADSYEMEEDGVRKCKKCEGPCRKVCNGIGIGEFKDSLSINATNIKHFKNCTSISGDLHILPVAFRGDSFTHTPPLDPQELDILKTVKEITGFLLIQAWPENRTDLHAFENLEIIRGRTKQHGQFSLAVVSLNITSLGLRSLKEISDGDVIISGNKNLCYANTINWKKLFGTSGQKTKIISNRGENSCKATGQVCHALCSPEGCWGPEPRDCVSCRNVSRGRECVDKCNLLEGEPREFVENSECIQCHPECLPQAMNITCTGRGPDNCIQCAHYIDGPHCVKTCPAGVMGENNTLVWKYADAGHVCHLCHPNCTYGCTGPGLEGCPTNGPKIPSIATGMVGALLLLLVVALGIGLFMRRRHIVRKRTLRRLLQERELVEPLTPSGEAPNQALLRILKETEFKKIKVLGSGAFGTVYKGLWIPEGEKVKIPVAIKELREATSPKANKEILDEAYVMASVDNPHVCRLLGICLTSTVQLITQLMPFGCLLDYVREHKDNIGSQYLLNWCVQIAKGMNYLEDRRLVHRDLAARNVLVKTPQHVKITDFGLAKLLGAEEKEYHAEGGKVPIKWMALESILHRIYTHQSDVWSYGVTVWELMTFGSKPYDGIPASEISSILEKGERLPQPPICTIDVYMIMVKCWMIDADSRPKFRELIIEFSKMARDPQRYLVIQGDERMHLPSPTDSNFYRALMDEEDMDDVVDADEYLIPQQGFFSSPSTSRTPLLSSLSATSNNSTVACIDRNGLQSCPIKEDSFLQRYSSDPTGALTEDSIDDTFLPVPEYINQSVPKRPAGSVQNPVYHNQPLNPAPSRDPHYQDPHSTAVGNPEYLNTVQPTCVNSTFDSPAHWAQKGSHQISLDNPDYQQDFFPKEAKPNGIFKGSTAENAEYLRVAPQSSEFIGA
- Sequence (P01133 971-1023 partner limits assumed): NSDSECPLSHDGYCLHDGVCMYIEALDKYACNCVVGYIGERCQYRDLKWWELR
- Test Details: EGF receptor tyrosine kinase assay (P^32 incorporation in GAT)
- Assay type: biochemical
- Condition: at 100 μM; EGRF-R; read-out: % Inhibition at 100 μM (EGFR TK)
Everything with inhibition at 100 µM lower than 40% is 0; everything else, including exactly 40%, is 1.

Compound	Target Under Test	Group Label
COC(=O)c1ccc(NC(=O)c2c(SSc3c(C(=O)Nc4ccc(C(=O)OC)cc4)c4ccccc4n3C)n(C)c3ccccc23)cc1	epidermal growth factor receptor tyrosine kinase (Homo sapiens, UniProt P00533)	0
CCOC(=O)CCc1c(SSc2[nH]c3ccccc3c2CCC(=O)OCC)[nH]c2ccccc12	epidermal growth factor receptor tyrosine kinase (Homo sapiens, UniProt P00533)	0
CCOC(=O)CCc1c(SSc2[nH]c3c(C)cccc3c2CCC(=O)OCC)[nH]c2c(C)cccc12	epidermal growth factor receptor tyrosine kinase (Homo sapiens, UniProt P00533)	0
Cn1c(SSc2c(C(=O)Nc3ccccc3)c3c(Cl)cccc3n2C)c(C(=O)Nc2ccccc2)c2c(Cl)cccc21	epidermal growth factor receptor tyrosine kinase (Homo sapiens, UniProt P00533)	1

Input: Could you verify whether the entry CCOC(=O)CCC1C(=S)N(C)c2ccccc21 (stereo not drawn) shows inhibition at 100 µM of no less than 40%?
Output: 0

Input: And then `CN(C(=O)c1c(SSc2c(C(=O)N(C)c3ccccc3)c3ccccc3n2C)n(C)c2ccccc12)c1ccccc1` , what is it?
Output: 0

Input: Can you handle `O=C(CCc1c(SSc2[nH]c3ccccc3c2CCC(=O)NCc2ccc(C(=O)O)c(O)c2)[nH]c2ccccc12)NCc1ccc(C(=O)O)c(O)c1` next?
Output: 1

Input: And the next one, `CC(=O)Oc1ccc2c(C(=O)Nc3ccccc3)c(SSc3c(C(=O)Nc4ccccc4)c4ccc(OC(C)=O)cc4n3C)n(C)c2c1` ?
Output: 0

Input: Would you mind doing `Cn1c(SSc2c(C(=O)Nc3ccccc3)c3cc(C(F)(F)F)ccc3n2C)c(C(=O)Nc2ccccc2)c2cc(C(F)(F)F)ccc21` as well?
Output: 0
